The reported measurements were obtained from patent US11530244B2.

Parameter: pIC50. Scope: all listed entries.
Test System: human PCSK9 / human LDLR EGFa domain interaction (Homo sapiens (Human), UniProt Q8NBP7)
Sequence (Q8NBP7 31-152 partner, one chain of several): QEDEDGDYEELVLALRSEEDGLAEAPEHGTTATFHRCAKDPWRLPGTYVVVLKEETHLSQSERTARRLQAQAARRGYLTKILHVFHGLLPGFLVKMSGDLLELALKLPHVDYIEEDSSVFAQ
Test Method Notes: TR-FRET assay of inhibition of the PCSK9-LDLR protein-protein interaction
Assay type: binding
Measurement Parameters: TR-FRET, 20 nM human PCSK9, 20 nM human LDLR EGFa domain, 2 hours room temperature; read-out: IC50
pIC50: −log10 of the molar value. Starred links: 1 amine or outer side, 2 acyl side, 3 side chain; linkers in the order of their positions; H or OH if unused. Positions of bridges follow the written chain, without caps; N, C: chain ends. Non-standard residues stand in square brackets, D forms with d. Residues, ends and D or L forms follow the SMILES beside them. NMeTrp(1-Me) = CN[C@@H](Cc1cn(C)c2ccccc12)C(=O)O; Trp(5-F) = N[C@@H](Cc1c[nH]c2ccc(F)cc12)C(=O)O; 2Nal = N[C@@H](Cc1ccc2ccccc2c1)C(=O)O; mXylylene = c1cc(C[*:1])cc(C[*:2])c1; dNMeL = CN[C@H](CC(C)C)C(=O)O; Pip = O=C(O)[C@@H]1CCCCN1; Nva = CCC[C@H](N)C(=O)O; Mpa = O=C(O)CCS

{"Compound": "NCCCC[C@@H]1NC(=O)CCSCc2cccc(c2)CSC[C@@H](C(N)=O)NC(=O)[C@@H]2CCCCN2C(=O)[C@H](Cc2ccc(O)cc2)NC(=O)[C@H](Cc2cnc[nH]2)NC(=O)[C@H](CC(=O)O)NC(=O)[C@H](Cc2c[nH]c3ccc(F)cc23)NC(=O)[C@H](Cc2c[nH]c3ccc(F)cc23)NC(=O)CNC1=O [Compound 208] ([Mpa]KG[Trp(5-F)][Trp(5-F)]DHY[Pip]C-NH2; linker 1-10 via mXylylene)", "pIC50": "4.30 to 4.68"}

// query Give pIC50 for this entry on human PCSK9 / human LDLR EGFa domain interaction (Homo sapiens (Human), UniProt Q8NBP7): CCC[C@@H]1NC(=O)CCSCc2cccc(c2)CSC[C@@H](C(N)=O)NC(=O)[C@@H]2CCCN2C(=O)[C@H](Cc2ccc(OC)cc2)NC(=O)[C@H]([C@@H](C)OC)NC(=O)[C@@H]2CCCN2C(=O)[C@H](Cc2cn(C)c3ccccc23)N(C)C(=O)[C@H](Cc2ccc3ccccc3c2)NC(=O)[C@@H](CC(C)C)N(C)C1=O [Compound 038] ([Mpa][Nva][dNMeL][2Nal][NMeTrp(1-Me)]PT(Me)Y(Me)PC-NH2; linker 1-10 via mXylylene)
// result 7.00 to 10.00

###

Test System: UniProt Q8NBP7
Test Method Notes: PCSK9 Alexa FRET Standard assay (displacement of AlexaFluor647 tagged cyclic peptide Reagent A)
Type: binding
Measurement Parameters: PCSK9 Alexa FRET Standard assay, 0.5 nM PCSK9, 20 nM AF cyclic peptide Reagent A; read-out: IC50
pIC50: −log10 of the molar value. Starred links: 1 amine or outer side, 2 acyl side, 3 side chain; linkers in the order of their positions; H or OH if unused. Positions of bridges follow the written chain, without caps; N, C: chain ends. Non-standard residues stand in square brackets, D forms with d. Residues, ends and D or L forms follow the SMILES beside them. X58 = O=C([C@@H]1[C@H](OCC=[*:3])CCN1[*:1])[*:2]; Trp(5-F) = N[C@@H](Cc1c[nH]c2ccc(F)cc12)C(=O)O; X57 = O=C([C@@H](CCCCC=[*:3])N[*:1])[*:2]; X34 = O=C(CCC1CCN([*:1])CC1)[*:2]; αMeP = C[C@@]1(C(=O)O)CCCN1
Parameter: pIC50. Scope: all listed entries.

{"Molecule": "NCCCC[C@@H]1NC(=O)CCCn2cc(nn2)C[C@@H](C(N)=O)NC(=O)[C@@H]2CCCN2C(=O)[C@H](Cc2ccc(O)cc2)NC(=O)[C@H](Cc2c[nH]cn2)NC(=O)[C@H](CC(=O)O)NC(=O)[C@H](Cc2c[nH]c3ccc(F)cc23)NC(=O)[C@H](Cc2c[nH]c3ccc(F)cc23)NC(=O)CNC1=O [Compound 184]", "pIC50": "7.00 to 9.96"}
{"Molecule": "COc1ccc(C[C@@H]2NC(=O)[C@H](Cc3cnc[nH]3)NC(=O)[C@H](CC(=O)O)NC(=O)[C@H](Cc3c[nH]c4ccc(F)cc34)NC(=O)[C@H](Cc3c[nH]c4ccc(F)cc34)NC(=O)[C@H](C)NC(=O)CCC3CCN(CC3)C(=O)[C@H](CC(N)=O)NC(=O)[C@]3(C)CCCN3C2=O)cc1 [Compound 404] (cyclo(A[Trp(5-F)][Trp(5-F)]DHY(Me)[αMeP]N[X34]))", "pIC50": "4.92 to 6.00"}

Next:
// query Look up and state reported pIC50 for CC(=O)N[C@@H]1CCCC/C=C\CO[C@@H]2CCN(C(=O)[C@H](Cc3ccc(O)cc3)NC(=O)[C@H](Cc3cnc[nH]3)NC(=O)[C@H](CC(=O)O)NC(=O)[C@H](Cc3c[nH]c4ccc(F)cc34)NC(=O)[C@H](Cc3c[nH]c4ccc(F)cc34)NC(=O)CNC1=O)[C@@H]2C(N)=O [Compound 471] (Ac-[X57]G[Trp(5-F)][Trp(5-F)]DHY[X58]-NH2; staple (Z) 1-8)
// result 7.00 to 9.96

###

Test System: PCSK9 (Homo sapiens (Human), UniProt Q8NBP7)
Sequence (Q8NBP7 153-692): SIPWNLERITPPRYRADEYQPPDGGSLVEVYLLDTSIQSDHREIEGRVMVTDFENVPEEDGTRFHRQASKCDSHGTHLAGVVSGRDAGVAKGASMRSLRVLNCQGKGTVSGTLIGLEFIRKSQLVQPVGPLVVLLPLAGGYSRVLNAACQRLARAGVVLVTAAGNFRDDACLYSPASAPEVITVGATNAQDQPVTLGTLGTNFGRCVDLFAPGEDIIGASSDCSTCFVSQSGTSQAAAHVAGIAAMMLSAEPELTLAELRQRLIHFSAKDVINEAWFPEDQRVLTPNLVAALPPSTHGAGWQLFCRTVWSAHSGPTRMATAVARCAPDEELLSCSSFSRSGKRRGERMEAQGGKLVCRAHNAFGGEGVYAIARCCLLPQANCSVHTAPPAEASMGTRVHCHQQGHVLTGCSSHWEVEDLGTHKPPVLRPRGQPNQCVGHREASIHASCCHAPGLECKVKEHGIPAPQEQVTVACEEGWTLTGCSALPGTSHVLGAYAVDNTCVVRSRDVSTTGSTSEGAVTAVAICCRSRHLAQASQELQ
Test Method Notes: PCSK9 Alexa FRET Standard assay (displacement of AlexaFluor647 tagged cyclic peptide Reagent A)
Type: binding
Measurement Parameters: PCSK9 Alexa FRET Standard assay, 0.5 nM PCSK9, 20 nM AF cyclic peptide Reagent A; read-out: IC50
Starred links: 1 amine or outer side, 2 acyl side, 3 side chain; linkers in the order of their positions; H or OH if unused. Positions of bridges follow the written chain, without caps; N, C: chain ends. Non-standard residues stand in square brackets, D forms with d. Residues, ends and D or L forms follow the SMILES beside them. Trp(5-F) = N[C@@H](Cc1c[nH]c2ccc(F)cc12)C(=O)O; mXylylene = c1cc(C[*:1])cc(C[*:2])c1; αMeP = C[C@@]1(C(=O)O)CCCN1; 3Amb = NCc1cccc(C(=O)O)c1; Mpa = O=C(O)CCS
Readout Type: IC50

{"Compound": "CCCCCCCCCCCCCCCC(=O)N[C@@H](CCC(=O)NCCOCCOCCC(=O)NCCOCCOCC(=O)NCCCC[C@H](NC(=O)COCCOCCOCCOCCOCCOCCOCCOCCOCCOCCOCCOCCNC(=O)[C@@H]1CSCc2cccc(c2)CSCCC(=O)N[C@@H](CCCCN)C(=O)N[C@H](C)C(=O)N[C@@H](Cc2c[nH]c3ccc(F)cc23)C(=O)N[C@@H](Cc2c[nH]c3ccc(F)cc23)C(=O)N[C@@H](CC(=O)O)C(=O)N[C@@H](Cc2cnc[nH]2)C(=O)N[C@@H](Cc2ccc(O)cc2)C(=O)N2CCC[C@@]2(C)C(=O)N1)C(N)=O)C(=O)O", "IC50": "1000 to 12100 nM"}

Next:
// query Give IC50 for this entry on PCSK9 (Homo sapiens (Human), UniProt Q8NBP7): C[C@@]12CCCN1C(=O)[C@H](Cc1ccc(O)cc1)NC(=O)c1cccc(c1)CNC(=O)[C@H](Cc1c[nH]c3ccc(F)cc13)NC(=O)[C@H](Cc1c[nH]c3ccc(F)cc13)NC(=O)CNC(=O)[C@H](CCCCN)NC(=O)CCSCc1cccc(c1)CSC[C@@H](C(N)=O)NC2=O [Compound 088] ([Mpa]KG[Trp(5-F)][Trp(5-F)][3Amb]Y[αMeP]C-NH2; linker 1-9 via mXylylene)
// result 100 to 1000 nM

###

Parameter: pIC50. Scope: all listed entries.
Test System: PCSK9 (Homo sapiens (Human), UniProt Q8NBP7)
Test Method Notes: PCSK9 Alexa FRET Standard assay (displacement of AlexaFluor647 tagged cyclic peptide Reagent A)
Type: binding
Measurement Parameters: PCSK9 Alexa FRET Standard assay, 0.5 nM PCSK9, 20 nM AF cyclic peptide Reagent A; read-out: IC50
pIC50: −log10 of the molar value. Starred links: 1 amine or outer side, 2 acyl side, 3 side chain; linkers in the order of their positions; H or OH if unused. Positions of bridges follow the written chain, without caps; N, C: chain ends. Non-standard residues stand in square brackets, D forms with d. Residues, ends and D or L forms follow the SMILES beside them. Trp(5-F) = N[C@@H](Cc1c[nH]c2ccc(F)cc12)C(=O)O; Pro(cis-4-F) = O=C(O)[C@@H]1C[C@H](F)CN1; X64 = C[C@H](N[*:1])c1ncc(C(=O)[*:2])s1; mXylylene = c1cc(C[*:1])cc(C[*:2])c1; X44 = O=C(C[*:2])NCCCC(=O)[*:1]; αMeP = C[C@@]1(C(=O)O)CCCN1; Mpa = O=C(O)CCS

{"Compound": "CC(C)[C@H]1NC(=O)[C@H](CCCCN)NC(=O)CCSCc2cccc(c2)CSC[C@@H](C(N)=O)NC(=O)[C@]2(C)CCCN2C(=O)[C@H](Cc2ccc(O)cc2)NC(=O)[C@H]([C@@H](C)O)NC(=O)[C@@H]2CCCN2C(=O)[C@H](Cc2c[nH]c3ccc(F)cc23)NC(=O)[C@H](Cc2c[nH]c3ccc(F)cc23)NC1=O [Compound 052] ([Mpa]K[dV][Trp(5-F)][Trp(5-F)]PTY[αMeP]C-NH2; linker 1-10 via mXylylene)", "pIC50": "4.92 to 6.00"}
{"Compound": "C[C@@H]1NC(=O)[C@H](Cc2c[nH]c3ccc(F)cc23)NC(=O)[C@H](Cc2c[nH]c3ccc(F)cc23)NC(=O)[C@@H](C)NC(=O)[C@H](CCCCN)NC(=O)CCSCc2cccc(c2)CSC[C@@H](C(N)=O)NC(=O)[C@]2(C)CCCN2C(=O)[C@H](Cc2ccc(O)cc2)NC(=O)C2=CN=C1S2 [Compound 460] ([Mpa]K[dA][Trp(5-F)][Trp(5-F)][X64]Y[αMeP]C-NH2; linker 1-9 via mXylylene)", "pIC50": "7.00 to 9.96"}

Next:
// query Look up and state reported pIC50 for COc1ccc(C[C@@H]2NC(=O)[C@H]([C@@H](C)O)NC(=O)[C@@H]3C[C@H](F)CN3C(=O)[C@H](Cc3c[nH]c4ccc(F)cc34)NC(=O)[C@H](Cc3c[nH]c4ccc(F)cc34)NC(=O)[C@@H](C)NC(=O)[C@H](CCCCN)NC(=O)CCCNC(=O)COc3ccc(cc3)C[C@@H](C(N)=O)NC(=O)[C@]3(C)CCCN3C2=O)cc1 [Compound 092] (K[dA][Trp(5-F)][Trp(5-F)][Pro(cis-4-F)]TY(Me)[αMeP]Y-NH2; linker N-9 via X44)
// result 7.00 to 9.96
